study_system: 5α-reductase 2 (Homo sapiens, UniProt P31213)
Construct: 100,000 x g pellet of the lysate
Sequence (P31213 whole entry): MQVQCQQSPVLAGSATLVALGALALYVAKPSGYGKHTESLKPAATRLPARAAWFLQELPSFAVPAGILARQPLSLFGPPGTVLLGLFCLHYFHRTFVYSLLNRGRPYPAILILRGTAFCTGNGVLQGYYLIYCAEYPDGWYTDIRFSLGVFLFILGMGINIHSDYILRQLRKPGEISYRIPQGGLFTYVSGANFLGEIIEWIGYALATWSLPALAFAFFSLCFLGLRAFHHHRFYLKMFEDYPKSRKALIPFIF
protocol_notes: Inhibition of type 2 5α-reductase (14C-testosterone to DHT conversion, lysate of transfected COS7 cells)
settings: pH 5.5 citrate buffer, 1 nM 14C-testosterone, 5 mM NADPH, 50 minutes at 37° C.; read-out: 5α-reductases: IC50 Type II
recorded_metric: pIC50
Note: pIC50 values are expressed as the negative base-10 logarithm of concentration in M.

Before answering, review these 4 worked examples.
Exam item: Item "O=C(O)c1cc2cc(OCc3ccccc3)c(OCc3ccccc3)cc2[nH]1" has what recorded pIC50?
Marked response: 8.30

Exam item: # input molecule: "COc1cc2[nH]c(C(=O)O)cc2cc1OCc1ccc(C#N)cc1" ; wanted: its pIC50
Marked response: 7.40

Exam item: Consider the molecule "COc1ccc(COc2cc3cc(C(=O)O)[nH]c3cc2OC)cc1" and give its measured pIC50.
Marked response: 8.00

Exam item: Would you kindly share the measured pIC50 for "Cc1c(C(=O)O)[nH]c2cc(OCc3ccccc3)c(OCc3ccccc3)cc12" ?
Marked response: 6.00

New cases:
Exam item: Looking for the measured pIC50 of "COc1cc2[nH]c(C(=O)O)cc2cc1OCc1ccccc1" , can you help?
Marked response: 9.00

Exam item: # pIC50 lookup, item O=C(O)c1cc2c(ccc3ccccc32)[nH]1 [Example 7, 3H-benz[e]indole-2-carboxylic acid]
Marked response: 5.22

Exam item: Entry "COc1cc2[nH]c(C(=O)O)cc2cc1OCc1cc(OC)c(OC)c(OC)c1" has what pIC50?
Marked response: 8.00

Exam item: // pIC50 lookup, key: "Cn1c(C(=O)O)cc2c3ccccc3ccc21"
Marked response: 5.00

###

study_system: 5α-reductase 1 (Homo sapiens)
Construct: 100,000 x g pellet of the lysate
Sequence (P18405 1-259): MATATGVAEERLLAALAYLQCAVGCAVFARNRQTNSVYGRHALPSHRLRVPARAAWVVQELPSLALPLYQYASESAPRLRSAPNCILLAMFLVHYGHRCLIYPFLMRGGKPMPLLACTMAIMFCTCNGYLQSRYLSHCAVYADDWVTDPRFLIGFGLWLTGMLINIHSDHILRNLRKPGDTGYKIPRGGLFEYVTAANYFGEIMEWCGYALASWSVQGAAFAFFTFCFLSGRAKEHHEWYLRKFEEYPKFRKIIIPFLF
protocol_notes: Inhibition of type 1 5α-reductase (14C-testosterone to DHT conversion, lysate of transfected COS7 cells)
settings: pH 6.5 phosphate buffer, 1 nM 14C-testosterone, 5 mM NADPH, 50 minutes at 37° C.; read-out: 5α-reductases: IC50 Type I
Doc: threshold 3 µM (exclusive). Items with IC50 beneath it return 1.0; others return 0.0.

Exam item: Consider the compound "COc1cc2[nH]c(C(=O)O)cc2cc1OCc1ccccc1" . Is its IC50 strictly less than 3 µM?
Marked response: 1.0

Exam item: Strictly below 3 µM in IC50? "Cc1c(C(=O)O)[nH]c2cc(OCc3ccccc3)c(OCc3ccccc3)cc12"
Marked response: 0.0

Continuing:
Exam item: Hello, I'm reviewing records and need to know if IC50 of "O=C(O)c1cc2cc(OCc3ccccc3)c(OCc3ccccc3)cc2[nH]1" is below 3 µM. Could you check?
Marked response: 0.0

Exam item: Strictly below 3 µM in IC50? "COc1cc2[nH]c(C(=O)O)cc2cc1OCc1ccc(C#N)cc1"
Marked response: 0.0

Exam item: # TODO verify IC50 < 3 µM strictly for this compound: "COc1cc(OCc2cc(C(F)(F)F)cc(C(F)(F)F)c2)c2cc(C(=O)O)[nH]c2c1"
Marked response: 0.0

Exam item: Regarding "COc1cc2[nH]c(C(=O)O)cc2cc1OCc1cc(OC)c(OC)c(OC)c1" , kindly confirm whether its IC50 is beneath 3 µM.
Marked response: 0.0

Exam item: Lab log: compare recorded IC50 with 3 µM; is it strictly lower for "Cn1c(C(=O)O)cc2c3ccccc3ccc21" ?
Marked response: 1.0

Exam item: Given "COc1cc2[nH]c(C(=O)O)cc2cc1OCc1cc(C(F)(F)F)cc(C(F)(F)F)c1" , is recorded IC50 strictly lower than 3 µM?
Marked response: 1.0
